target entity: mGluR5 receptor (Sus scrofa, UniProt I3LUI7)
Construct: 450 μg of protein from brain homogenate with 5 nM ^3[H]-MPEP; from tissue; host or cells: pig brain halves without medulla, cerebellum and pons
Sequence (I3LUI7 19-1212): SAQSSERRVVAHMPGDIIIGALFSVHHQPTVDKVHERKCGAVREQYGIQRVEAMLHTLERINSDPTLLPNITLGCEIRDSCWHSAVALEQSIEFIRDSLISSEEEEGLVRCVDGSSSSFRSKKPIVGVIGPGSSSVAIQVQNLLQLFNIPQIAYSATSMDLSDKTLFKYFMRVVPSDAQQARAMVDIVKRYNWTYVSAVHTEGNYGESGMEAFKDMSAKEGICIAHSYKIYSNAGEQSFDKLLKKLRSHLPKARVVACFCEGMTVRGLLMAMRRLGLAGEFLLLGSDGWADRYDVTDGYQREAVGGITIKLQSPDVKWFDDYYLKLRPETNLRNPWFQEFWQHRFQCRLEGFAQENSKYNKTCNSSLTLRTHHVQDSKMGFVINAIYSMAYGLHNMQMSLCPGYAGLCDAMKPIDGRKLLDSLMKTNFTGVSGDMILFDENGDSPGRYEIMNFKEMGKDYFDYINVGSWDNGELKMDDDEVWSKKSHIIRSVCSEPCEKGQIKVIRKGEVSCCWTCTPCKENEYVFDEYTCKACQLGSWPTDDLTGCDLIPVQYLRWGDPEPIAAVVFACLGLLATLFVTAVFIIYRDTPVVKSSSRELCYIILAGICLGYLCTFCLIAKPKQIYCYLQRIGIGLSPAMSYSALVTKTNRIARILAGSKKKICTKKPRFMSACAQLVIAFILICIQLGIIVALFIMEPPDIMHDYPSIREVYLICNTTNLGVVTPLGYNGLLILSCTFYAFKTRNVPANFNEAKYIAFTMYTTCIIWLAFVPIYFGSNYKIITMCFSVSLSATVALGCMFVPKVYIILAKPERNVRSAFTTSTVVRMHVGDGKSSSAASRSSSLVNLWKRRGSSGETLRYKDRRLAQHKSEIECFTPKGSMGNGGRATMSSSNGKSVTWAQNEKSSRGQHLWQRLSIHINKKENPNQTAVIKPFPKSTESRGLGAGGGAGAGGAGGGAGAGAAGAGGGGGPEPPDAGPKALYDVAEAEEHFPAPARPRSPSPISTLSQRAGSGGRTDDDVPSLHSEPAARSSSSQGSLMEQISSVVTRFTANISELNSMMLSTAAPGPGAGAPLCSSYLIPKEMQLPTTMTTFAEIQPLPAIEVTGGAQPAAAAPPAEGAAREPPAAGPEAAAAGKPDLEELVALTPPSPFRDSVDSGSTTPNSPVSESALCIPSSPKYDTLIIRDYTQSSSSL
test name: [3H]-MPEP mGluR5 receptor binding assay (pig brain homogenate)
test settings: 10 μM compound, 5 nM [3H]-MPEP
Param threshold (80%) applies to % Inhibition of mGluR5 Receptor (pig) [^3H]-MPEP Bond at 10 μM; output y when value >= threshold, n when value < threshold.

- smiles string: "CN(Cc1cccc(-c2ccc3ncnc(NC4CC4)c3c2)c1)S(C)(=O)=O"
  discrete label: "n"
- smiles string: "CC(C)(C)Nc1ncnc2ccc(-c3ccc(F)c(CN(C(=O)C(C)(C)C)C4CC4)c3)cc12"
  discrete label: "y"
- smiles string: "COc1ccc(S(=O)(=O)N(Cc2cc(-c3ccc4ncnc(NC5CC5)c4c3)ccc2Cl)C2CC2)cc1"
  discrete label: "y"
- smiles string: "CC(C)(C)Nc1ncnc2ccc(-c3ccc(F)c(CN(C4CC4)S(=O)(=O)c4cccs4)c3)cc12"
  discrete label: "n"
- smiles string: "CC(C)(C)Nc1ncnc2ccc(-c3ccc(F)c(CN(C(=O)CCc4ccccc4)C4CC4)c3)cc12"
  discrete label: "y"
- smiles string: "CC(C)(C)C(=O)N(Cc1cc(-c2ccc3ncnc(NC4CC4)c3c2)ccc1Cl)C1CC1"
  discrete label: "y"
- smiles string: "O=S(=O)(c1cccc(C(F)(F)F)c1)N(Cc1cccc(-c2cc(F)c3ncnc(NC4CC4)c3c2)c1)C1CC1"
  discrete label: "n"
- smiles string: "CC(C)(C)Nc1ncnc2ccc(-c3ccc(F)c(CN(C4CC4)S(C)(=O)=O)c3)cc12"
  discrete label: "y"
- smiles string: "O=S(=O)(c1c(F)c(F)c(F)c(F)c1F)N(Cc1cccc(-c2cc(F)c3ncnc(NC4CC4)c3c2)c1)C1CC1"
  discrete label: "n"
- smiles string: "O=S(=O)(c1ccc(Cl)cc1Cl)N(Cc1cc(-c2ccc3ncnc(NC4CC4)c3c2)ccc1Cl)C1CC1"
  discrete label: "y"
- smiles string: "CC(C)(C)Nc1ncnc2ccc(-c3ccc(F)c(CN(C(=O)c4cccnc4)C4CC4)c3)cc12"
  discrete label: "y"
- smiles string: "Cc1cc2ncnc(NC3CC3)c2cc1-c1cccc(CN(C2CC2)S(=O)(=O)c2ccccc2)c1"
  discrete label: "y"
- smiles string: "O=C(c1ccccc1)N(Cc1cc(-c2ccc3ncnc(NC4CC4)c3c2)ccc1Cl)C1CC1"
  discrete label: "y"
- smiles string: "O=S(=O)(c1cccc(C(F)(F)F)c1)N(Cc1cc(-c2ccc3ncnc(NC4CC4)c3c2)ccc1Cl)C1CC1"
  discrete label: "y"
- smiles string: "O=S(=O)(c1c(F)c(F)c(F)c(F)c1F)N(Cc1cc(-c2ccc3ncnc(NC4CC4)c3c2)ccn1)C1CC1"
  discrete label: "n"
- smiles string: "CC(C)(C)Nc1ncnc2ccc(-c3ccc(F)c(CN(C(=O)C4CCCCC4)C4CC4)c3)cc12"
  discrete label: "n"
